Tested on: RXF 393 renal
Assay: NCI-60 one-dose screen, 48 h (100 = growth as untreated, 0 = no growth, -100 = all killed)
Details: 10 µM unless noted
Compounds without any hit were thinned out: in the full panel of roughly 83,000, 20% have a hit.
Kindly state growth for each of the entries shown.
Please state the figure in %; there is no need to write the unit.

Q. Field request: growth | item: COc1ccc2c(c1)N(CCO)C1=C(C(=O)OC1)C2c1cccc(F)c1 (stereo not given)
A. 31.3

Q. # iterate: "O=c1c2cccc3c(N4CCCC4)ccc(c32)c2nc3ccccc3n12"
A. 103

Q. Now the compound "NC(N)=NCCCCCNc1noc(Cc2c[nH]c3cc(Br)ccc23)n1"
A. 78.3

Q. What do you get for "CCOC(=O)c1csc(NC(=O)COc2ccc(/C=C3\Oc4ccccc4C3=O)cc2)n1" ?
A. 79.6

Q. Follow-up entry: "O=C(O)CCCN1C(=O)/C(=C/c2cn(-c3ccccc3)nc2-c2ccc([N+](=O)[O-])cc2)SC1=S"
A. 86.7

====

System: MOLT-4 leukemia
Experiment: NCI-60 one-dose screen, 48 h (100 = growth as untreated, 0 = no growth, -100 = all killed)
Details: 10 µM unless noted
The panel holds about 83,000 compounds, 20% with a hit somewhere; the sample as a whole holds those more often.
Field 'label' (enum: 1 / -1). Set to 1 when growth is strictly under 30%; else -1.

Q. Hi there! Is growth for "CCOC(=O)c1cc(C)n(-c2ccc(C(=O)O)cc2)c1C" below 30%, do you know?
A. -1

Q. For "CCCOC(=O)Nc1nc2ccc(SCC(C)C)cc2s1" then?
A. -1

Q. Same question, "CCOC(=O)C#Cc1c(C(=O)OCC)nnn1Cc1ccc([N+](=O)[O-])cc1" this time
A. 1

Q. Follow-up item: "O=C(O)c1ccc(-n2cc(/C=N/Nc3ccccc3)c(-c3ccc(F)cc3F)n2)cc1"
A. -1

Q. Another: O=C(NCc1ccc(Cl)cc1Cl)C1CCC(=O)N1c1cccs1 (configuration not stated)
A. -1

Q. Moving on to the next compound: "CN(/C(N)=N/N=C/c1c2ccccc2cc2ccccc12)C1CCCCC1"
A. 1

Q. Next record, please: COC(=O)Nc1nc2ccc(S(=O)c3ccccc3)cc2[nH]1 (configuration not stated)
A. -1

Q. Please do the same for CC1CCc2c(C(=O)Nc3ncc(Cc4cccc([N+](=O)[O-])c4)s3)csc2C1 (configuration not stated) as well.
A. 1

Q. Same question, "Cc1[nH]c(C(=O)Nc2ccccc2OC2CCNCC2)c(Cl)c1Cl" this time
A. 1

Q. What about this compound? "Nc1n[nH]c2cccc(C#Cc3cccc(NC(=O)c4cc(F)cc(C(F)(F)F)c4)c3)c12"
A. -1

Q. Same question, "CC/C(=C(/c1ccc(Cl)cc1)c1ccc(OCCN2CCCCC2)cc1)c1ccc(OC)cc1" this time
A. 1

Q. Moving on to "COC1=CC(c2ccc[nH]2)=N/C1=C\c1[nH]c(C)c(C)c1CCC(=O)OCc1ccccc1"
A. 1

Q. Also, "O=C(CN1C(=O)S/C(=C\C(Cl)=C\c2ccccc2)C1=O)NCCc1ccc(O)cc1" please.
A. 1

Q. Here is the next compound: "O=C1/C(=C\c2ccc3nccnc3c2)SC(=S)N1CCc1ccc(O)cc1"
A. -1

Q. Now consider "COC(=O)/C=C1/SC(=Nc2ccc(C(F)(F)F)cc2)N(CCc2c[nH]c3ccc(O)cc23)C1=O" and answer again.
A. 1

Q. CCC(C(=O)[C@@H](C)[C@@H](O)[C@H](C)[C@@H]1O[C@@H]([C@@H](CC)C(=O)ONC(=O)c2ccccc2)CC[C@@H]1C)[C@H]1O[C@]2(C=CC(=O)[C@]3(CC[C@@](C)([C@H]4CC[C@](O)(CC)[C@H](C)O4)O3)O2)[C@H](C)C[C@@H]1C (some centres not stated) , same question.
A. 1

Q. Subsequent entry: N#Cc1ccc(O)c(C2=NCC(c3ccccc3)O2)c1 (configuration not stated)
A. 1

Q. Same question, "Cc1ccc(Nn2c(SCC(=O)Nc3nc(-c4ccccc4)cs3)nc(C)c2C)cc1" this time
A. -1

Q. What do we get for "COc1ccc(/C=C/C(=O)c2cc3c(N)c(C(=O)Nc4cccc5ccccc45)sc3nc2C)cc1" ?
A. -1

Q. Another compound to check: CCCCCCC12CCC(=O)N1CCc1cncn12 (configuration not stated)
A. -1

Q. Do the same for "CCCCCCCCCc1ccc(OCCOCCOCCOCCOCCOCCOCCOCCOCCO)cc1" please
A. 1

Q. Next entry: Clc1ccc2c(NC3CCC(N4CCOCC4)CC3)ccnc2c1 (configuration not stated)
A. -1
